Exercise: state measured inhibition for each of the compounds provided.
tested on: HEK293; experiment: Inhibition of TNF-alpha-induced NFkappaB activation in human HEK293 cells at 50 uM after 6 hrs by luciferase assay relative to control; format: cell-based
Answers are plain numbers, in %.

Worked set:
> print(dat)
                         chemical.structure  readout.units  numeric.result
1  COC(=O)[C@H]1Cc2c([nH]c3ccccc23)CN1Cc1ccc(O)cc1              %            33.5
2  COC(=O)[C@@H]1Cc2c([nH]c3ccccc23)CN1S(=O)(=O)c1ccc(Br)cc1              %            32.8
3  COC(=O)[C@@H]1Cc2c([nH]c3ccccc23)CN1Cc1ccccc1              %            60.4
4      COC(=O)[C@@H]1Cc2c([nH]c3ccccc23)CN1              %            58.3

// for each compound in input: emit inhibition
1. O=C(O)[C@H]1Cc2c([nH]c3ccccc23)CN1Cc1ccc(O)cc1
2. COC(=O)[C@@H]1Cc2c([nH]c3ccccc23)CN1C(=O)NC(C)C
3. C#CCN1Cc2[nH]c3ccccc3c2C[C@H]1C(=O)OC
4. COC(=O)[C@@H]1Cc2c([nH]c3ccccc23)CN1CC1CC1
5. O=C(O)[C@@H]1Cc2c([nH]c3ccccc23)CN1CC1CC1
6. Cc1ccc(S(=O)(=O)N2Cc3[nH]c4ccccc4c3C[C@H]2C(=O)O)cc1

54.6
69
21.1
54.1
33.7
42.5
